Assay: cytotoxicity in HPDE-C7 cells, cell-based, fluorescence, HTS (AID 430);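 further: cells exposed to compound for 48 hours before viability readout; 0% = vehicle and 100% = reference cytotoxic drug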
Settings: HPDE-C7 pancreatic duct cells viability, at 10 µM, hits give high values
About 1,100 (1.7%) of roughly 63,000 compounds were called active. This excerpt belongs to a sample that is enriched for actives. Potency and affinity values are given separately.
Each item that follows carries a reported cytotoxicity.
parameter: cytotoxicity (%)

INSERT INTO assay_data (compound, unit_name, assay_value) VALUES
  ('CCN(CC)C(=O)N1CCC(NC(=O)Cc2ccccc2)CC1', '%', -6.6),
  ('COc1ccc(-c2cc(C(F)(F)F)nc(N3CCCCC3)n2)cc1OC', '%', -20.9),
  ('Cc1cc(=O)c2cc(Cl)ccc2[nH]1', '%', -15),
  ('COc1ccc(-c2cc(C(F)(F)F)nc(NC3CCCC3)n2)cc1OC', '%', 24.7),
  ('CCCCN(Cc1ccccc1)C(=O)C1CCCN(S(=O)(=O)c2cnc[nH]2)C1 (stereo not drawn)', '%', 6),
  ('O=C(O)CC1C(=O)NCCN1C/C=C/c1ccccc1 (stereo not drawn)', '%', -5.3),
  ('CCOC(=O)C(C)Sc1nnc(Cn2c(=O)sc3ccccc32)n1-c1ccccc1 (stereo not drawn)', '%', 18.4),
  ('COc1ccc(C(=O)CSc2nnc(-c3ccccc3)o2)cc1', '%', -13.3);

###

The molecules listed here are annotated with their cytotoxicity.
Test: cytotoxicity in HPDE-C7 cells, cell-based, fluorescence, HTS (AID 430);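 further: cells exposed to compound for 48 hours before viability readout; 0% = vehicle and 100% = reference cytotoxic drug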
Conditions: HPDE-C7 pancreatic duct cells viability, at 10 µM, hits give high values
The whole screen tested about 63,000 compounds, of which about 1,100 (1.7%) were called active. What follows is part of a selection rich in actives, with near analogues and random picks from the rest. Results with a measured potency or affinity are listed apart.
parameter: cytotoxicity (%)

INSERT INTO results (molecule, parameter, unit_name, assay_value) VALUES
  ('CCOC(=O)C1=C(C)NC(=O)NC1c1ccc(OC)c(Cl)c1 (stereo not drawn)', 'cytotoxicity', '%', -1.8),
  ('c1ccc2c(c1)CCN(c1ncnc3nc[nH]c13)C2', 'cytotoxicity', '%', -4.2),
  ('Cc1ccc(-c2ccc(=O)n(CCC(=O)NCCN3CCCCC3C)n2)cc1 (stereo not drawn)', 'cytotoxicity', '%', 5.1),
  ('COc1ccc(N2CCN(C(=O)CSc3ccccc3N)CC2)cc1', 'cytotoxicity', '%', -6.2),
  ('CC(=O)O[C@H]1C(=O)[C@]2(C)[C@H]([C@H](OC(=O)c3ccccc3)[C@]3(O)C[C@H](OC(=O)[C@H](O)[C@@H](NC(=O)c4ccccc4)c4ccccc4)C(C)=C1C3(C)C)[C@]1(OC(C)=O)CO[C@@H]1C[C@@H]2O', 'cytotoxicity', '%', 72),
  ('Cc1ccc2[nH]c(=O)c(CN(CCc3ccccc3)C(=O)N3CCOCC3)cc2c1', 'cytotoxicity', '%', 5.9),
  ('CCCOc1ccccc1C1CC(=O)NC2=C1C(=O)CCC2 (stereo not drawn)', 'cytotoxicity', '%', 47.3),
  ('O=c1[nH]c(CN2CCc3ccccc3C2)nc2ccccc12', 'cytotoxicity', '%', 3.3),
  ('CCOc1ccc(C2N(c3ccc(OC)cc3)C(=O)C3CCCN32)cc1OC (stereo not drawn)', 'cytotoxicity', '%', 2.1),
  ('O=C(NCCc1cccc(Cl)c1)c1cccnc1', 'cytotoxicity', '%', -6),
  ('CCCOc1ccccc1C1CC(=O)Nc2cc3c(cc21)OCCO3 (stereo not drawn)', 'cytotoxicity', '%', 63),
  ('Cc1ccccc1-c1nc(CS(=O)CC(=O)NCCCN(C)c2ccccc2)c(C)o1 (stereo not drawn)', 'cytotoxicity', '%', 10.9),
  ('CCCOc1c(OC)cccc1C1CC(=O)Nc2cc3c(cc21)OCO3 (stereo not drawn)', 'cytotoxicity', '%', 12.7);

Reference for the values: PubChem BioAssay AID430
